# system: human GLP-1 receptor (human, UniProt P43220 24-463)
# assayProtocol: cell-based or functional assay
No end group written: not given here.
metricName: EC50 hGLP1R (cAMP activity assay) (nM)
Answer with a number only, understood to be in nM.

The examples below pair each entry with its known result.
In [3]: df
Out[3]:
                                     binder                         metricname  value
0  HSQGTFTSDYSKYLDARRAQDFVQWLIRT-NH2 [PD25]  EC50 hGLP1R (cAMP activity assay)   0.02
1  HSQGTFTSDYSKYLDWRRAQDFVQWLQNT-NH2 [PD44]  EC50 hGLP1R (cAMP activity assay)   0.01
2  HSQGTFTSDYSKYLDMQRAHDFVQWLMNT-NH2 [PD55]  EC50 hGLP1R (cAMP activity assay)   0.01
3  HSQGTFTSDYSKYLDSRRAQDFVDWLINS-NH2 [PD50]  EC50 hGLP1R (cAMP activity assay)   0.01
4  HSQGTFTSDYSKYLDSKRAHDFVQWLLNT-NH2 [PD45]  EC50 hGLP1R (cAMP activity assay)   0.02

QUERY: Look up EC50 hGLP1R (cAMP activity assay) of HSQGTFTSDYSKYLDSRRAQDFVQWLLDS-NH2 [PD59] and report it.
RESULT: 0.01

QUERY: Supply measured EC50 hGLP1R (cAMP activity assay) of HSQGTFTSDYSKYLDSIRAQDFVQWLMDT-NH2 [PD36] in your reply.
RESULT: 0.06

QUERY: Return the recorded EC50 hGLP1R (cAMP activity assay) value; entry: HSQGTFFSDYSHWLDSRRAQDFVQWLMNT-NH2 [PD43]
RESULT: 0.04

QUERY: Look up EC50 hGLP1R (cAMP activity assay) of HSQGTFTSDYSKYLDSRRAHDFVQWLLNT-NH2 [PD29] and report it.
RESULT: 0.02

QUERY: For HSQGTFTSDYSKYLDSRRAQDFVQWLLNQ-NH2 [PD57] , write its EC50 hGLP1R (cAMP activity assay).
RESULT: 0.01

Data credit: patent US20180339017A1
